# Test system: Prostaglandin G/H synthase 1 (Ovis aries)
# Sequence (P05979 whole entry): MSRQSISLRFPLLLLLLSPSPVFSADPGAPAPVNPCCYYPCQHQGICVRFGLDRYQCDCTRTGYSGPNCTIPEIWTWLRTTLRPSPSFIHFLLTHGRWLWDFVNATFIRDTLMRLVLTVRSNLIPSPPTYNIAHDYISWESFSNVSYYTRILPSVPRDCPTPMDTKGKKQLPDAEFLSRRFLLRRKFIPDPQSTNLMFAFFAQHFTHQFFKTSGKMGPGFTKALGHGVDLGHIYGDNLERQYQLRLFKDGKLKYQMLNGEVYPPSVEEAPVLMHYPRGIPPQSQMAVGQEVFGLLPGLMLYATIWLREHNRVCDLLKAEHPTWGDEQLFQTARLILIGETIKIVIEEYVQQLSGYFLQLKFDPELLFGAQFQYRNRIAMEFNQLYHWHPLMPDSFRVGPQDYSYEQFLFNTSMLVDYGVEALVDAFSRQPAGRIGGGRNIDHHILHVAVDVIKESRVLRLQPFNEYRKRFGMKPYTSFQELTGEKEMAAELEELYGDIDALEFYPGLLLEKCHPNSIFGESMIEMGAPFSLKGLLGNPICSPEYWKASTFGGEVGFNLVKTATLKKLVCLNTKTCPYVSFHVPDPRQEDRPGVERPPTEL
Readout label: IC50 (µM)

C=CCC1=C[C@@]2(OC)[C@H](C)[C@@H](c3cc(OC)c(OC)c(OC)c3)[C@H](C1=O)[C@H]2O    72.1
C=CCC1=C[C@@]2(OC)[C@H](C)[C@@H](c3ccc(OC)c(OC)c3)[C@H](C1=O)[C@H]2O    94.9
C/C=C/c1cc(OC)c2c(c1)[C@H](C)[C@@H](c1ccc(O)c(OC)c1)O2    312
C=CCc1cc(OC)c2oc(-c3ccc4c(c3)OCO4)cc2c1 [NEOLIGNAN 9-NOR-7,8-DEHYDRO-ISOLICARIN B]    349

I = C/C=C/c1cc(OC)c2c(c1)[C@@H](C)[C@H](c1ccc(O)c(OC)c1)O2
II = C=CCC1=C[C@]2(OC)[C@@H](O)[C@@](OC)(C1=O)[C@@H](c1cc(OC)c(OC)c(OC)c1)[C@@H]2C (stereo in doubt; 9)
III = C=CCC1=C[C@]2(OC)C(=CC1=O)O[C@@H](c1ccc(OC)c(OC)c1)[C@H]2C [(+)-DENUDATIN B]
Query: List items by IC50 in falling order. Returns: the labels arranged in the requested order.
Reply: I, II, III

* * *

# Method description: Antiplatelet activity in rabbit platelets assessed as inhibition of arachidonic acid-induced platelet aggregation
# Type: functional, cell-based, Oryctolagus cuniculus
# Assay setup: platelet
Readout label: pIC50
The scale used: pIC50 is minus the common logarithm of the concentration in molar units.

Query: Look up pIC50 for this compound: C=CCC1=C[C@]2(OC)[C@@H](O)[C@@](OC)(C1=O)[C@@H](c1cc(OC)c(OC)c(OC)c1)[C@@H]2C (stereo in doubt; 9)
Reply: 4.36

* * *

# Method description: Antiplatelet activity in rabbit platelets assessed as inhibition of platelet activating factor-induced platelet aggregation
# Type: functional, cell-based, Oryctolagus cuniculus
# Assay setup: Oryctolagus cuniculus, Platelet
Readout label: IC50 (µM)

C=CCC1=C[C@]2(OC)C(=O)C([C@@H]1O)[C@H](c1cc(OC)c(OC)c(OC)c1)[C@H]2C    6.79

I = C=CCC1=C[C@]2(OC)[C@H](C)[C@@H](c3cc(OC)c4c(c3)OCO4)[C@](OC)(C1=O)[C@H]2O
II = C=CCC1=C[C@@]2(OC)[C@@H](C)[C@H](c3cc(OC)c(OC)c(OC)c3)[C@](OC)([C@H]1O)[C@H]2O
Query: Param pair: I , II . Output: the one whose IC50 is numerically greater. Use the label to indicate which entry you chose.
Reply: II

* * *

# Method description: Antiplatelet activity in rabbit platelets assessed as inhibition of platelet activating factor-induced platelet aggregation
# Type: functional, cell-based, Oryctolagus cuniculus
# Assay setup: Oryctolagus cuniculus, Platelet
Readout label: IC50 (µM)

Previously resolved entries follow.
C=CCC1=C[C@@]2(OC)C(=CC1=O)O[C@H](c1ccc(OC)c(OC)c1)[C@H]2C    0.153
CC(=O)Oc1ccccc1C(=O)O    10.3
C=CCC1=C[C@]2(OC)C(=O)C(C1=O)[C@H](c1cc(OC)c(OC)c(OC)c1)[C@H]2C    7.47

P = C=CCC1=C[C@@]2(OC)[C@H](C)[C@@H](c3cc(OC)c4c(c3)OCO4)[C@H](C1=O)[C@@H]2O
Q = C=CCC1=C[C@@]2(OC)C(=O)[C@](OC)([C@H](c3cc(OC)c4c(c3)OCO4)[C@H]2C)[C@H]1O
Query: Param pair: P , Q . Output: the one whose IC50 is numerically greater. Use the label to indicate which entry you chose.
Reply: Q

* * *

# Species on record: Ovis aries
# Method description: Selectivity ratio of IC50 for ovine COX-1 to IC50 for ovine COX-2
Readout label: Ratio IC50

Previously resolved entries follow.
COc1cc(-c2oc3c(OC)cc(C=O)cc3c2C)cc(OC)c1OC [OCOPHYLLALS B]    412
C=CCc1cc(OC)c2oc(-c3ccc4c(c3)OCO4)cc2c1 [NEOLIGNAN 9-NOR-7,8-DEHYDRO-ISOLICARIN B]    329
C=CCC1=C[C@]2(OC)C(=CC1=O)O[C@@H](c1ccc(OC)c(OC)c1)[C@H]2C [(+)-DENUDATIN B]    15.6
C/C=C/c1cc(OC)c2c(c1)[C@@H](C)[C@H](c1ccc(OC)c(OC)c1)O2 [ACUMINATIN]    146
COc1cc(C=O)cc2c(C)c(-c3ccc4c(c3)OCO4)oc12 [OCOPHYLLALS A]    436
O=C(O)/C=C/c1ccc(O)c(O)c1    3.74

I = C/C=C/c1cc(OC)c2c(c1)[C@@H](C)[C@H](c1ccc3c(c1)OCO3)O2 [LICARINE B]
II = C/C=C/c1cc(OC)c2c(c1)[C@H](C)[C@@H](c1ccc(O)c(OC)c1)O2 [LICARIN A]
III = C=CCc1cc2c(cc1O)O[C@H](c1ccc3c(c1)OCO3)[C@H]2C [LILIFLOL A]
IV = C/C=C/c1cc(OC)c2c(c1)[C@H](C)[C@@H](c1ccc3c(c1)OCO3)O2 [(-)-LICARIN B]
Query: In this exercise, place the 4 compounds in ascending sequence of their recorded Ratio IC50. Returns: the labels arranged in the requested order.
Reply: III, II, I, IV
(III: 10.2, II: 35.5, I: 157, IV: 426)

* * *

# Method description: Antiplatelet activity in rabbit platelets assessed as inhibition of platelet activating factor-induced platelet aggregation
# Type: functional, cell-based, Oryctolagus cuniculus
# Assay setup: Oryctolagus cuniculus, Platelet
Readout label: IC50 (µM)

C=CCC1=C[C@@]2(OC)[C@H](C)[C@@H](c3ccc(OC)c(OC)c3)[C@H](C1=O)[C@@H]2O    2.33
C=CCC1=C[C@@]2(OC)[C@H](C)[C@@H](c3cc(OC)c(OC)c(OC)c3)[C@H](C1=O)[C@H]2O    2.34
C/C=C/c1cc(OC)c2c(c1)[C@@H](C)[C@H](c1ccc3c(c1)OCO3)O2    565

A = COc1cc(-c2oc3c(OC)cc(C=O)cc3c2C)cc(OC)c1OC
B = C=CCc1cc(OC)c2oc(-c3ccc4c(c3)OCO4)cc2c1 [NEOLIGNAN 9-NOR-7,8-DEHYDRO-ISOLICARIN B]
C = C/C=C/c1cc(OC)c2c(c1)[C@@H](C)[C@H](c1ccc(OC)c(OC)c1)O2
Query: List items by IC50 in falling order. Returns: the labels arranged in the requested order.
Reply: A, B, C

* * *

# Method description: Antiplatelet activity in rabbit platelets assessed as inhibition of adenosin 5'-diphosphate-induced platelet aggregation
# Format: functional, cell-based
# Assay setup: Oryctolagus cuniculus
Readout label: IC50 (µM)

Previously resolved entries follow.
COc1cc(-c2oc3c(OC)cc(C=O)cc3c2C)cc(OC)c1OC [OCOPHYLLALS B]    98.3
C/C=C/c1cc(OC)c2c(c1)[C@H](C)[C@@H](c1ccc3c(c1)OCO3)O2 [(-)-LICARIN B]    54.6
C=CCC1=C[C@]2(OC)C(=O)[C@@](OC)(C1=O)[C@H](c1cc(OC)c3c(c1)OCO3)[C@H]2C [CINERIN A]    88.9
C/C=C/c1cc(OC)c2c(c1)[C@@H](C)[C@H](c1ccc3c(c1)OCO3)O2 [LICARINE B]    56.7
C=CCC1=C[C@]2(OC)C(=CC1=O)O[C@@H](c1ccc(OC)c(OC)c1)[C@H]2C [(+)-DENUDATIN B]    148
C=CCC1=C[C@]2(OC)C(=O)C([C@@H]1O)[C@H](c1cc(OC)c(OC)c(OC)c1)[C@H]2C [MACROPHYLLIN B]    121
C=CCC1=C[C@]2(OC)C(=O)C(C1=O)[C@H](c1cc(OC)c(OC)c(OC)c1)[C@H]2C [4'-OXO-MACROPHYLLIN B]    521
CC(=O)Oc1ccccc1C(=O)O [ASPIRIN]    545

a = C=CCC1=C[C@@]2(OC)[C@H](C)[C@@H](c3ccc(OC)c(OC)c3)[C@H](C1=O)[C@H]2O [OCOPHYLOL B]
b = C/C=C/c1cc(OC)c2c(c1)[C@H](C)[C@@H](c1ccc(O)c(OC)c1)O2 [LICARIN A]
c = C/C=C/c1cc(OC)c2c(c1)[C@@H](C)[C@H](c1ccc(OC)c(OC)c1)O2 [ACUMINATIN]
d = C/C=C/c1cc(OC)c2c(c1)[C@@H](C)[C@H](c1ccc(O)c(OC)c1)O2 [LICARINE A]
Query: List items by IC50 in falling order. Returns: the labels arranged in the requested order.
Reply: a, d, b, c
(a: 725 µM, d: 165 µM, b: 112 µM, c: 75.6 µM)
